Tested on: MDA-MB-231/ATCC
Assay: NCI primary anti-cancer assay (SRB), MDA-MB-231/ATCC
Assay type: cell-based
Settings: Homo sapiens; 10^−5M; Breast Cancer MDA-MB-231/ATCC; read-out: Growth Inhibition %
Protocol: Evaluation of anti-cancer activities on pyrimido[4,5-d]pyrimidine derivatives were performed at the National Cancer Institute (NCI) USA. First the newly synthesized compounds have been evaluated in primary anti-cancer assay at 10^−5M concentration against 60 human tumor cell lines then the active compounds were tested at 5 different concentrations against the same 60 human tumor cell lines. The biological data for the newly synthesized compounds are compiled in table 2 […]
Listed next: entries and their corresponding inhibition at 10 µM.
Respond numerically; units are % and should not be typed.

| Structure Notation | Measured |
| --- | --- |
| Cc1nc(Nc2ccc(NC(=S)Nc3ccccc3)cc2)nc2nc(SCc3ccccc3)[nH]c(=O)c12 | 23.1 |

Can you look up the measured inhibition at 10 µM of Cc1nc(Nc2ccc(NC(=S)Nc3ccccc3)cc2)nc2nc(NCc3ccccc3)[nH]c(=O)c12 for me?
31.5

Then what about the compound O=c1[nH]c(Nc2cccc(Cl)c2)nc2nc(Nc3ccc(NC(=S)Nc4ccccc4)cc3)nc(-c3ccc(O)cc3O)c12 ?
21.4

Follow-up entry: Cc1cc(C)nc(NS(=O)(=O)c2ccc(Nc3nc(C)c4c(=O)[nH]c(Nc5cccc(Cl)c5)nc4n3)cc2)n1
30.4

Measured values drawn from paper PMC3163380 for this set.
